system: UACC-257 melanoma; assay: NCI-60 one-dose screen, 48 h (100 = growth as untreated, 0 = no growth, -100 = all killed); conditions: 10 µM unless noted
Compounds without any hit were thinned out: in the full panel of roughly 83,000, 20% have a hit.
Test readout: growth (%)
Return type: number; implicit unit %.

// lookup growth for O=NC1CC=CCC1c1ccccc1 (configuration not stated)
105

// lookup growth for CC(C)c1nc(N(C)S(C)(=O)=O)nc(-c2ccc(F)cc2)c1/C=C/[C@@H](O)C[C@@H](O)CC(=O)O
103

// lookup growth for O=c1ccn(C2OC(CO)C(O)C2F)c(=O)[nH]1 (configuration not stated)
114

// lookup growth for NC(=O)c1ncn([C@@H]2O[C@H](CO)[C@@H](O)[C@H]2O)n1
103

// lookup growth for O=C(O)c1ccc(NC(=O)c2cccc(Nc3ccnc(C(F)(F)F)c3)c2)cc1
98.7

// lookup growth for NC(=O)NN=C(C1CC1)C1CC1
101

// lookup growth for Cc1ccc(C=C2C(Cl)=C(Cl)C(Cl)=C2Cl)cc1
-83.2

// lookup growth for N#CCCN(CCO)c1ccccc1
99.8

// lookup growth for CCOC(=O)/C=C(/C)Sc1cc(O)c2ccccc2c1O
5.04

// lookup growth for Cn1[nH]cc(/C=N/C(N)=O)c1=O
119

// lookup growth for COc1ccc(/C=C2\NC(=S)NC2=O)cc1
106

// lookup growth for COc1ccc(/C=C2\COc3ccc(O)c(O)c3C2=O)cc1OC
31.4

====

Test system: UACC-257 melanoma
Assay: NCI-60 one-dose screen, 48 h (100 = growth as untreated, 0 = no growth, -100 = all killed)
Settings: 10 µM unless noted
Experimental: Cells are grown in 96 well plates and exposed to the test compound for 48 hours. Compounds are tested at a single concentration, which is 10^-5 M for most compounds. The reported endpoint is percent growth (GI% or GIPRCNT), where numbers from 0 - 100% represent growth inhibition, and numbers from -100% - 0 represent cell death. For example, a value of 40 represents 60% growth inhibition. A value of 0 means no net growth occurred over the course of the experiment. […]
Compounds without any hit were thinned out: in the full panel of roughly 83,000, 20% have a hit.
Please respond with reported growth for every item in the list.
Return type: number; implicit unit %.

Can you look up growth on UACC-257 melanoma for CSc1nc2c(c(=O)n1C)C(c1ccccc1)C1=C(N2)/C(=C/c2ccccc2)CCC1 (stereo not given) ?
52.2

Can you look up growth on UACC-257 melanoma for CCOC(Cc1c(N)[nH]c(=S)[nH]c1=O)OCC ?
103

Can you look up growth on UACC-257 melanoma for O=[N+]([O-])c1ccc(Oc2cccc(C(F)(F)F)c2)c([N+](=O)[O-])c1 ?
53.7

Can you look up growth on UACC-257 melanoma for O=C1Nc2ccc(F)cc2/C1=C/c1nc(-c2ccc(F)cc2)n2ccccc12 ?
104

Can you look up growth on UACC-257 melanoma for COc1ccc(C(=O)/C=C/c2c(Cl)nc3c(c(C)nn3-c3ccccc3)c2-c2ccc(Br)cc2)cc1 ?
108

====

test system: CAKI-1 renal; experiment: NCI-60 one-dose screen, 48 h; settings: 10 µM unless noted
This is part of a sample that, as a whole, favours compounds with a hit. Of some 83,000 tested, about 20% had one in any assay. Active and inactive are the calls of the source. How the source made its calls: active means growth percent below 10; inactive means the rest.
Pick from Yes = active, No = inactive when you respond.

Kindly provide the recorded test outcome for the following compound: Cc1nn(-c2ccccc2)c(Cl)c1C(CC(=O)c1ccc(Cl)cc1)CC(=O)c1ccc(Cl)cc1
No

Kindly provide the recorded test outcome for the following compound: O=C(/C=C/c1cccnc1)NCCCCC1CCCN(C(=O)c2ccccc2)C1 (configuration not stated)
Yes

Kindly provide the recorded test outcome for the following compound: Fc1ccc(-c2nnc(/C=C/c3cn(-c4ccccc4)nc3-c3ccccc3)o2)cc1
No

Kindly provide the recorded test outcome for the following compound: CC(=O)O[C@H]1C(=O)[C@@]2(C)C([C@H](OC(=O)c3ccccc3)[C@]3(O)C[C@H](OC(=O)[C@H](O)[C@@H](NC(=O)c4ccccc4)c4ccccc4)C(C)=C1C3(C)C)[C@]1(OC(C)=O)CO[C@@H]1C[C@@H]2O (some centres not stated)
No

Kindly provide the recorded test outcome for the following compound: O=C(Nc1ccc(Cl)cc1Cl)Nc1ccc(-c2cccnc2)cc1N1CCC(CO)CC1
No

Kindly provide the recorded test outcome for the following compound: O=C1OC(c2ccc(-c3ccccc3)cc2)=C/C1=C/c1cccs1
No

Kindly provide the recorded test outcome for the following compound: Cc1nn(-c2ccccc2)c2nc(Cl)c(/C=C/C(=O)c3ccccc3)c(-c3ccccc3)c12
No

Kindly provide the recorded test outcome for the following compound: Cc1cc(C(=O)O)c(C)cc1C(=O)O
No

Kindly provide the recorded test outcome for the following compound: CCc1[nH]nc(-c2ccc(OC)cc2)c1-c1ccccc1OCCN(CC)CC
No

Kindly provide the recorded test outcome for the following compound: CCOC(=O)/C(=C/c1ccccc1)C(=O)c1ccccc1
No

Kindly provide the recorded test outcome for the following compound: O=C(Cn1ccnc1)NC(c1ccccc1)c1ccccc1
No

Kindly provide the recorded test outcome for the following compound: O=C(Nc1ncc([N+](=O)[O-])s1)c1cccc([N+](=O)[O-])c1
No

Kindly provide the recorded test outcome for the following compound: CC(=O)Oc1ccc(C23c4ccccc4C2(OC(C)=O)c2cc(OC(C)=O)ccc23)cc1 (configuration not stated)
No

Kindly provide the recorded test outcome for the following compound: CCC(C)(C)C(=O)O[C@H]1C[C@@H](C)C=C2C=C[C@H](C)[C@H](CC[C@@H]3C[C@@H](O)CC(=O)O3)[C@H]21
Yes

Kindly provide the recorded test outcome for the following compound: COc1ccc2c(c1)C(=O)c1c-2c(OCCCN(C)C)nc2cc(Br)ccc12
No

Kindly provide the recorded test outcome for the following compound: Cc1cc(CC(=O)O)n(C)c1C(=O)c1ccc(Cl)cc1
No

Kindly provide the recorded test outcome for the following compound: O=NC1CC=CCC1c1ccccc1 (configuration not stated)
No

Kindly provide the recorded test outcome for the following compound: O=C(Nc1cccc2ccccc12)c1cc2c(cc1Br)OCO2
No

Kindly provide the recorded test outcome for the following compound: CC(C)COCC(CN(Cc1ccccc1)c1ccccc1)N1CCCC1 (configuration not stated)
No

Kindly provide the recorded test outcome for the following compound: CC/C=C\C=C/C(=O)N/C=C/CC1Cc2cccc(O)c2C(=O)O1 (configuration not stated)
No

Kindly provide the recorded test outcome for the following compound: Cc1scc2c1N(C(=O)CN1CCN(C)CC1)c1ccccc1NC2=O
No

Kindly provide the recorded test outcome for the following compound: CC(O)c1nc2c(c(=O)n(C)c(=O)n2C)n1C (configuration not stated)
No

Kindly provide the recorded test outcome for the following compound: O=c1cc(-c2cccnc2)oc2c1ccc1ccccc12
No

Kindly provide the recorded test outcome for the following compound: Cc1c(N(C)CS(=O)(=O)O)c(=O)n(-c2ccccc2)n1C
No

Kindly provide the recorded test outcome for the following compound: COc1cc(C2CC(c3ccc(C)cc3)=NN2C(C)=O)ccc1Oc1ccnc2cc(Cl)ccc12 (configuration not stated)
No

Kindly provide the recorded test outcome for the following compound: Cc1cc(NC(=O)Nc2cc(Cl)ccc2C)no1
No

Kindly provide the recorded test outcome for the following compound: CCn1c2ccccc2c2ccc(C(C)=O)cc21
No

Kindly provide the recorded test outcome for the following compound: CC(C)[C@]12O[C@H]1[C@@H]1O[C@]13[C@]1(O[C@H]1C[C@H]1C4=C(CC[C@@]13C)C(=O)OC4)[C@@H]2OC(=O)CN(C)C
Yes

Kindly provide the recorded test outcome for the following compound: Cc1c(C(N)=O)sc2c1c(=O)n(Cc1ccccc1)c1nnc(S(=O)(=O)CC(=O)Nc3ccc(Cl)cc3)n21
No

Kindly provide the recorded test outcome for the following compound: O=C(CCc1nnc2sc(Cc3ccccc3Cl)nn12)c1nc2ccccc2[nH]1
No

Kindly provide the recorded test outcome for the following compound: NC(=O)c1ccccc1NC(=O)c1ccccc1Cl
No

Kindly provide the recorded test outcome for the following compound: COc1ccc(/C=C/C(=O)Nc2cccnc2Nc2ccc(F)cc2)cc1
No

Kindly provide the recorded test outcome for the following compound: Cc1ccccc1NC(=O)c1cc2ccccc2cc1O
No

Kindly provide the recorded test outcome for the following compound: CC(C)[O-].CC(C)[O-].CN(CCN(C)Cc1cc(F)cc(F)c1[O-])Cc1cc(F)cc(F)c1[O-].[Ti+4]
Yes

Kindly provide the recorded test outcome for the following compound: CCC1=C(c2ccc(OC)cc2)C(C)(C)Oc2cc(O)c(CN3CCCC3)cc21
No

Kindly provide the recorded test outcome for the following compound: OC(c1cc(C(F)(F)F)nc2c(C(F)(F)F)cccc12)C1CCCCN1 (configuration not stated)
No

Kindly provide the recorded test outcome for the following compound: N#Cc1c(N)[nH]c(S)c1C#N
No

Kindly provide the recorded test outcome for the following compound: O=C(/C=C/c1ccccc1)CC(c1ccccc1)N1CCOCC1 (configuration not stated)
No

Kindly provide the recorded test outcome for the following compound: CCCCCCCCCCCCCCCCN=C(CC(=O)O)C(=O)O
No

Kindly provide the recorded test outcome for the following compound: Cn1cc(-c2csc(-c3cn(C)c4ncccc34)n2)c2cccnc21
No

Kindly provide the recorded test outcome for the following compound: CSc1nc2c(c(=O)n1C)C(c1ccccc1)C1=C(N2)/C(=C/c2ccccc2)CCC1 (configuration not stated)
No

Kindly provide the recorded test outcome for the following compound: CCC(CC)NCCCCCNc1cc(OC)cc2cccnc12
No
